Hello, the source for this data is patent US7514445B2, in case you need it.

targetDesc: UniProt:P49841
Sequence (P49841 whole entry, species assumed): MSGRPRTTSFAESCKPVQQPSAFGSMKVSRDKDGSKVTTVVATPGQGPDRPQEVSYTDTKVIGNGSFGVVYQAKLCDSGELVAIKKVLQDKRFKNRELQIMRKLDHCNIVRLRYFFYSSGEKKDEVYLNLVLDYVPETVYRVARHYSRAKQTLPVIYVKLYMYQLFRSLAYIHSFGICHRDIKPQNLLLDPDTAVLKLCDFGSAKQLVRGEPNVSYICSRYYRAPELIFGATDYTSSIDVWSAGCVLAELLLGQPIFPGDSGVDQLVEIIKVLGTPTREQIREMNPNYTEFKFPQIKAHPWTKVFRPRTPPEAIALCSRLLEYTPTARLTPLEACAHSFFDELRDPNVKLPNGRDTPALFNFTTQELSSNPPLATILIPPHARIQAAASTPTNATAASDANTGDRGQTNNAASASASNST
experimentalDetails: GSK3beta assay (SPA, phosphorylation of biotinylated phosphorylated CREB peptide, ATP-P33)
Format: biochemical
cond: -log IC50 (M); 25° C., 19 nM GSK3β, 5 μM biotinylated phosphorylated CREB peptide, 1 μM ATP, one hour
measuredQuantity: log10 of IC50 (log10 of the value in M)
A value of 2 here means IC50 of 100 in M, since values are log10.

Consider the following illustrative entries.
Reading of log10 of IC50 for `Cc1cc(C)c(Nc2ccnc(Nc3ccc4c(c3)OCO4)n2)c(C)c1` with UniProt:P49841: -5.30

Reading of log10 of IC50 for `Cc1cc(C)c(Nc2ccnc(Nc3ccc4ncccc4c3)n2)c(C)c1` with UniProt:P49841: -5.44

Reading of log10 of IC50 for `Cn1ccnc1-c1ccnc(Nc2ccc(C#N)c(OCc3ccccc3)c2)n1` with UniProt:P49841: -7.01

Reading of log10 of IC50 for `Cn1ccnc1-c1ccnc(Nc2ccc(C#N)cc2)n1` with UniProt:P49841: -7.11

Reading of log10 of IC50 for CC1(C)OCC(CNc2ccnc(Nc3ccc(C#N)cc3)n2)O1 (stereo not shown) with UniProt:P49841: -5.36

Field: log10 of IC50. Fill in for each record below.
1. N#Cc1ccc(Nc2nccc(NCc3ccco3)n2)cc1
2. N#Cc1ccc(Nc2nccc(C(=O)N3CCNCC3)n2)cc1OCc1ccccc1
3. Cc1cc(C)c(Nc2ccnc(Nc3ccc4[nH]ncc4c3)n2)c(C)c1

a:
[-5.81, -5.53, -6.28]

Field: log10 of IC50. Fill in for each record below.
1. N#Cc1ccc(Nc2nccc(NCc3cccs3)n2)cc1
2. CCN1CCCC1CNc1ccnc(Nc2ccc(C#N)cc2)n1 (stereo not shown)

a:
1: -5.74; 2: -5.72
